assay: Human HepG2 cell viability assay in 384 well format; type: toxicity, cell-based; design: dose 125 nL, time 70.5 hour; concentration not given beside the values; settings: HepG2 cells, read-out: Inhibition
MEASURED PARAMETER: cytotoxicity at 70.5 h (%)
Field format: number, assumed %, no unit text.

CC(C)[C@@H]1CN(C(=O)C2(c3ccccc3)CC2)C[C@H]1C(=O)O; -3.69
CS(=O)(=O)NC1CCN(C(=O)c2ccc(Br)o2)C1 (configuration not stated); -5.52
NC(=O)c1cc(C2CCCN(CCCOc3ccc(F)cc3)C2)n[nH]1 (configuration not stated); 4.69
Cc1nn(C)c(C)c1CCC(=O)NCC1(C(N)=O)CCOCC1; -17.6
O=C(c1ccc(=O)[nH]n1)N1CCCC1CCc1ccccc1 (configuration not stated); -11.9
O=C(C1CCOC1)N1CCC2(CCNCC2)C1 (configuration not stated); 27.5
Cc1nccn1C1CCCN(C(=O)CCNc2ncccn2)C1 (configuration not stated); -3.44
CCCn1[nH]cc/c1=N\C(=O)CN1CCc2c(nc(C3CC3)n2C)C1; -9.16
O=C(c1sccc1Cl)N1CCC(Cn2cc(CO)nn2)CC1; -4.2
O=C(NC1CC1)N1Cc2[nH]nc(COc3cccnc3)c2C1; -6.87

**Q:** Give its cytotoxicity at 70.5 h value. Item: Cc1cc(C)c(CNC(=O)NCC2CCCOC2)c(=O)[nH]1 (configuration not stated)
**A:** -11.1

**Q:** Give its cytotoxicity at 70.5 h value. Item: `O=C1COC2(CCN(Cc3ccncc3)CC2)CN1CC1CC1`
**A:** 4.04

* * *

Measured cytotoxicity at 70.5 h by item
assay: Human HepG2 cell viability assay in 384 well format; assay type: toxicity, cell-based; parameters: dose 125 nL, time 70.5 hour; concentration not given beside the values; details: HepG2 cells, read-out: Inhibition
Field format: number, assumed %, no unit text.

COc1ccc(C[C@H]2CNCC[C@@H]2OC)cc1; -5.86

**Q:** Give its cytotoxicity at 70.5 h value. Item: CC(C)c1n[nH]c(C2CN(C(=O)c3cc(C(N)=O)cs3)CCO2)n1 (configuration not stated)
**A:** 0.559

**Q:** Give its cytotoxicity at 70.5 h value. Item: O=C(C[S+]([O-])Cc1ccc(F)cc1Cl)N1CCc2sccc2C1 (configuration not stated)
**A:** -6.4

**Q:** Give its cytotoxicity at 70.5 h value. Item: Fc1ccc(CN2CCCCC2Cn2cncn2)c2ncccc12 (configuration not stated)
**A:** 25.5

**Q:** Give its cytotoxicity at 70.5 h value. Item: CC1Cn2c(nc3c2c(=O)[nH]c(=O)n3C)O1 (configuration not stated)
**A:** -12.3

**Q:** Give its cytotoxicity at 70.5 h value. Item: `O=C(Cn1ccc2sccc2c1=O)NCc1ccc(F)cc1`
**A:** -9.4

**Q:** Give its cytotoxicity at 70.5 h value. Item: `CC(C)NC(=O)C1CCN(c2nc3nc[nH]c(=O)c3s2)CC1`
**A:** -21.7

**Q:** Give its cytotoxicity at 70.5 h value. Item: `N#Cc1c2n(c3c(=O)[nH]cnc13)CCCC2`
**A:** -6.51

**Q:** Give its cytotoxicity at 70.5 h value. Item: `COCCC(=O)N1C[C@H](C(C)C)[C@@H](N(C)C)C1`
**A:** -14.3
